Taken from PubChem BioAssay (NCATS).

# procedureDetails: AP1 Signaling Pathway (AID 357);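 note: ME-180 reporter cells stimulated with EGF at its EC50 level; % is set by controls: 0 for no effect and ±100 for the full control effect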
# conditionContext: ME-180 (cervical carcinoma) AP-1-bla reporter, EGF-induced, beta-lactamase ratio, 5 h; at 17.2 µM (top of the series) unless noted
Records with an inconclusive call do not appear.
quantityName: activity change, negative = inhibition (%)
Numbers only here, please. The scale is %.

Lookup: Quick one: activity change, negative = inhibition for CCOc1c(C)cc2[nH]c(CCC(=O)O)nc2c1C ?
Found: 7.73

Lookup: Quick one: activity change, negative = inhibition for COC(=O)[C@H]1CCCN1C(=O)Nc1cccc(Oc2c(F)c(F)c(F)c(F)c2F)c1 ?
Found: -14.6

Lookup: Quick one: activity change, negative = inhibition for CN1C(=O)c2c(sc3c2CCCC3)NC1c1ccccc1O (centres undefined) ?
Found: -12.2

Lookup: Quick one: activity change, negative = inhibition for CCOC(=O)c1c(C)[nH]sc1=S ?
Found: 4.4

Lookup: Quick one: activity change, negative = inhibition for CCOc1ccc(/C(O)=C2/C(=O)C(=O)N(c3nc(C)c(C)s3)C2c2ccco2)cc1 (centres undefined) ?
Found: -13.5

Lookup: Quick one: activity change, negative = inhibition for CCOc1nc(-c2ccncc2)nc2ccccc12 ?
Found: -12

Lookup: Quick one: activity change, negative = inhibition for COc1cc(C2C(C#N)=C(N)Oc3cc(C)n(Cc4ccccn4)c(=O)c32)cc2c1OCO2 (centres undefined) ?
Found: -7.44

Lookup: Quick one: activity change, negative = inhibition for Cc1cc2ccccc2cc(C)c1=O ?
Found: 9.45

Lookup: Quick one: activity change, negative = inhibition for CCNC(=O)N(C(=O)NCC)n1c(C)nnc1C ?
Found: 6.49

Lookup: Quick one: activity change, negative = inhibition for COc1cccc(C2C(C(=O)c3cccs3)=C(O)C(=O)N2c2cc(C)on2)c1 (centres undefined) ?
Found: -6.29

Lookup: Quick one: activity change, negative = inhibition for COc1ccc(CCn2c(=N)c(C(=O)NCc3ccco3)cc3c(=O)n4ccccc4nc32)cc1 ?
Found: -1.64

Lookup: Quick one: activity change, negative = inhibition for O=C(NCCCNCc1ccccc1)/C(=N\O)c1ccccc1 ?
Found: -2.86

Lookup: Quick one: activity change, negative = inhibition for CSc1cc(C)nc(N(C)C(C)=O)n1 ?
Found: 16.9

Lookup: Quick one: activity change, negative = inhibition for CCOC(=O)Oc1ccc2c(c1)C(C)=CC(C)(C)N2C(=O)OCC ?
Found: 4.5

Lookup: Quick one: activity change, negative = inhibition for CN1C2C=C3C(C#N)=C(N)C(C#N)(C#N)[C@@H](c4cccs4)C3C1CC2 (some centres undefined) ?
Found: 17.2

Lookup: Quick one: activity change, negative = inhibition for Cc1ccc(-n2[nH]c(C)c(C=Nc3cc(C)ccn3)c2=O)cc1 ?
Found: 2.52

Lookup: Quick one: activity change, negative = inhibition for O=c1c(C=NCCCn2ccnc2)c(-c2ccccc2)[nH]n1-c1nc2ccccc2s1 ?
Found: -0.182

Lookup: Quick one: activity change, negative = inhibition for C=C(C)CSc1nnc2n(C)c(=O)c3c4c(sc3n12)CCC4 ?
Found: -2.43

Lookup: Quick one: activity change, negative = inhibition for Cc1cc(=O)oc(C)c1C(=O)NCCc1ccccc1 ?
Found: 8.18

Lookup: Quick one: activity change, negative = inhibition for CCOC(=O)Cc1[nH]nc2c1C(c1cc(OC)ccc1OC)C(C#N)=C(N)O2 (centres undefined) ?
Found: -11.5

Lookup: Quick one: activity change, negative = inhibition for CC(C)OCCCNc1ncnc2c1cnn2-c1ccccc1 ?
Found: -19.6

Lookup: Quick one: activity change, negative = inhibition for CCOc1nc(SC(C(C)=O)C(=O)Nc2ccccc2)nc(N(C)C)n1 (centres undefined) ?
Found: -3.25

Lookup: Quick one: activity change, negative = inhibition for Cn1ncc(N=Cc2c(O)ccc3ccccc23)c1C(=O)N1CCOCC1 ?
Found: 1.1

Lookup: Quick one: activity change, negative = inhibition for O=C1CC(c2ccco2)CC(O)=C1C=Nc1cc(Cl)ccc1O (centres undefined) ?
Found: -23.8
